- Tested on: leucémie P 388
- Assay type: in vivo, souris hybrides CDF1
- experimental conditions: 20 mg/kg i.p. J1-J5
Assignment: determine reported Jour médian de survie for the given compounds.

Report Jour médian de survie for Cc1cnc(NCCCN(C)C)c2c1[nH]c1ccncc12 [Dérivé N° 3] please.
20,0

Report Jour médian de survie for CCN(CC)CCCNc1ncc(C)c2[nH]c3ccncc3c12 [Dérivé N° 1] please.
15,9

Report Jour médian de survie for CCN(CC)CCCNc1ncc(C)c2c1c1cnccc1n2C [Dérivé N° 4] please.
18,0

Report Jour médian de survie for Cc1cnc(NCCCN(C)C)c2c3cnccc3n(C)c12 [Dérivé N° 9] please.
19,33

Report Jour médian de survie for Cc1cnc(NCCCN(C)C)c2c1[nH]c1ccncc12 [Dérivé N° 3 bis] please.
20,33

====

Assignment: determine reported T/C % for the given molecules.
- Test system: leucémie P 388
- Assay type: in vivo, souris hybrides CDF1
- experimental conditions: 80 mg/kg i.p. J1-J5
Note to self: number, then unit, no commentary.

Report T/C % for CCN(CC)CCCNc1ncc(C)c2c1c1cnccc1n2C [Dérivé N° 4] please.
81%

Report T/C % for Cc1cnc(NCCCN(C)C)c2c1[nH]c1ccncc12 [Dérivé N° 3 bis] please.
181%

Report T/C % for Cc1cnc(NCCCN(C)C)c2c1[nH]c1ccncc12 [Dérivé N° 3] please.
66%

Report T/C % for Cc1cnc(NCCCN(C)C)c2c3cnccc3n(C)c12 [Dérivé N° 9] please.
71%

====

- System: leucémie P 388
- Assay type: in vivo, souris hybrides CDF1
- experimental conditions: 80 mg/kg i.p. J1-J5; at day J 40
property label: Survivants

# query: Survivants | item "CCN(CC)CCCNc1ncc(C)c2c1c1cnccc1n2C" | system: leucémie P 388
0/10

# query: Survivants | item "Cc1cnc(NCCCN(C)C)c2c3cnccc3n(C)c12" | system: leucémie P 388
0

# query: Survivants | item Cc1cnc(NCCCN(C)C)c2c1[nH]c1ccncc12 [Dérivé N° 3 bis] | system: leucémie P 388
0/10

# query: Survivants | item Cc1cnc(NCCCN(C)C)c2c1[nH]c1ccncc12 [Dérivé N° 3] | system: leucémie P 388
0

====

- System: leucémie P 388
- Format: in vivo, souris hybrides CDF1
- experimental conditions: 20 mg/kg i.p. J1-J5
property label: T/C % (%)
Field format: number, assumed %, no unit text.

Report T/C % for "CCN(CC)CCCNc1ncc(C)c2c1c1cnccc1n2C" please.
164

Report T/C % for Cc1cnc(NCCCN(C)C)c2c1[nH]c1ccncc12 [Dérivé N° 3] please.
181

Report T/C % for "CCN(CC)CCCNc1ncc(C)c2[nH]c3ccncc3c12" please.
148

Report T/C % for Cc1cnc(NCCCN(C)C)c2c1[nH]c1ccncc12 [Dérivé N° 3 bis] please.
186

Report T/C % for "Cc1cnc(NCCCN(C)C)c2c3cnccc3n(C)c12" please.
167

====

- Tested on: leucémie P 388
- Format: in vivo, souris hybrides CDF1
- experimental conditions: 20 mg/kg i.p. J1-J5; at day J 40
Assignment: determine reported Survivants for the given compounds.
The response must contain the number and no unit.

Report Survivants for Cc1cnc(NCCCN(C)C)c2c1[nH]c1ccncc12 [Dérivé N° 3] please.
0

Report Survivants for "Cc1cnc(NCCCN(C)C)c2c3cnccc3n(C)c12" please.
0

Recorded values, source patent EP0197829A1.
